test system: Streptococcus pneumoniae; assay: Antibacterial activity against telethromycin-resistant Streptococcus pneumoniae B739 expressing erm gene by NCCLS method; format: functional
Measured metric: MIC (µg/mL)
// units = µg/mL; emit number, no label

// query Data request, read-out MIC, for `C=CCN(C)[C@H]1C[C@@H](C)O[C@@H](O[C@@H]2[C@@H](C)[C@H](OC(=O)Cc3ccccn3)[C@@H](C)C(=O)O[C@H](CC)[C@@]3(C)OC(=O)N(CCCCn4cncc4-c4ccco4)[C@@H]3[C@@H](C)C(=O)[C@H](C)C[C@@]2(C)OC)[C@@H]1O`
// result 1

// query Any idea what MIC was measured for `C=CCN(C)[C@H]1C[C@@H](C)O[C@@H](O[C@@H]2[C@@H](C)[C@H](OC(=O)Cc3ccccn3)[C@@H](C)C(=O)O[C@H](CC)[C@@]3(C)OC(=O)N(CCCCn4cnc(-c5ccc(N)nc5)c4)[C@@H]3[C@@H](C)C(=O)[C@H](C)C[C@@]2(C)OC)[C@@H]1O` ?
// result 0.125

// query // returns reported MIC for input `C=CCN(C)[C@H]1C[C@@H](C)O[C@@H](O[C@@H]2[C@@H](C)[C@H](OC(=O)Cc3ccccn3)[C@@H](C)C(=O)O[C@H](CC)[C@@]3(C)OC(=O)N(CCCCn4cnc(-c5ccco5)c4)[C@@H]3[C@@H](C)C(=O)[C@H](C)C[C@@]2(C)OC)[C@@H]1O`
// result 2

***
// query Any idea what MIC was measured for `C=CCN(C)[C@H]1C[C@@H](C)O[C@@H](O[C@@H]2[C@@H](C)[C@H](OC(=O)Cc3ccccn3)[C@@H](C)C(=O)O[C@H](CC)[C@@]3(C)OC(=O)N(CCCCn4cnc5ncccc54)[C@@H]3[C@@H](C)C(=O)[C@H](C)C[C@@]2(C)OC)[C@@H]1O` ?
// result 0.5

// query Name the recorded MIC for `C=CCN(C)[C@H]1C[C@@H](C)O[C@@H](O[C@@H]2[C@@H](C)[C@H](OC(=O)Cc3cccnc3)[C@@H](C)C(=O)O[C@H](CC)[C@@]3(C)OC(=O)N(CCCCn4cnc5ncccc54)[C@@H]3[C@@H](C)C(=O)[C@H](C)C[C@@]2(C)OC)[C@@H]1O` .
// result 0.5

// query Fill in: MIC of `CC[C@H]1OC(=O)[C@H](C)C(=O)[C@H](C)[C@@H](O[C@@H]2O[C@H](C)C[C@H](N(C)C)[C@H]2O)[C@](C)(OC)C[C@@H](C)C(=O)[C@H](C)[C@H]2N(CCCCn3cnc(-c4cccnc4)c3)C(=O)O[C@]12C` is ___
// result 64

// query Could you share which MIC value was measured for `C=CCN(C)[C@H]1C[C@@H](C)O[C@@H](O[C@@H]2[C@@H](C)[C@H](OC(=O)Cc3ccccn3)[C@@H](C)C(=O)O[C@H](CC)[C@@]3(C)OC(=O)N(CCCCn4ccc5cccnc54)[C@@H]3[C@@H](C)C(=O)[C@H](C)C[C@@]2(C)OC)[C@@H]1O` ?
// result 2

// query Quick check: MIC of `C=CCN(C)[C@H]1C[C@@H](C)O[C@@H](O[C@@H]2[C@@H](C)[C@H](OC(=O)Cc3ccccn3)[C@@H](C)C(=O)O[C@H](CC)[C@@]3(C)OC(=O)N(CCCCn4cnc(-c5ccnc(N)c5)c4)[C@@H]3[C@@H](C)C(=O)[C@H](C)C[C@@]2(C)OC)[C@@H]1O` ?
// result 1
